Origin of measurements: PubChem BioAssay (Tox21)

# testMethodNotes: qHTS assay to identify small molecule agonists of the RXR signaling pathway - cell viability counter screen (AID 1159529); also: nearly all actives have a fitted effect of over 50% in size
# cond: RXR-alpha-bla HEK293T viability, CellTiter-Glo, 16 h; series mostly up to 76.8 µM
# Excerpt: National Center for Advancing Translational Sciences [NCATS] NIH Chemical Genomics Center [NCGC] U.S. Environmental Protection Agency [EPA] National Institutes of Environmental Health Sciences [NIEHS] National Toxicology Program [NTP] U.S. Food and Drug Administration [FDA] The Retinoid X receptor (RXR), a nuclear hormone receptor expressed in liver, spleen, placenta, epidermis, central nervous system. […]
Records with an inconclusive call do not appear. Calls of active or inactive are those of the source. Calls follow the shape of the dose curve; as a rule, active = well fitted cell-killing curve with a large enough effect in the repeat runs; inconclusive = weak or mixed curves, or effect the other way; inactive = no such curve, though single readings can be large or run the other way.
Output constraint: value belongs to active, inactive

Query string: Give the logged outcome of this assay for the following compound: ClC1=C(Cl)[C@]2(Cl)[C@@H]3[C@@H](Cl)[C@H]4O[C@H]4[C@@H]3C1(Cl)C2(Cl)Cl
Result string: active

Query string: Look up the recorded call for CO/C=C(/C(=O)OC)c1ccccc1Oc1cc(Oc2ccccc2C#N)ncn1 in this test.
Result string: active

Query string: Which result was noted for this compound in the test: O=S(=O)(C(Cl)(Cl)Cl)C(Cl)(Cl)Cl
Result string: active

Query string: Please share the test call associated with N#Cc1cc([N+](=O)[O-])ccc1N .
Result string: inactive

Query string: Called result for Cc1ccc(N(SC(F)(Cl)Cl)S(=O)(=O)N(C)C)cc1
Result string: active

Query string: Hi team, can someone confirm the assay call for Cc1cc(C)c(C(=O)P(=O)(c2ccccc2)c2ccccc2)c(C)c1 ?
Result string: active

Query string: How was O=C(c1ccccc1)C(Cl)Cl classified in this test?
Result string: inactive

Query string: Recorded call for c1ccc2c(c1)Sc1ccccc1N2CC1CN2CCC1CC2 (stereo not drawn) ?
Result string: active

---

# testedOn: Androgen receptor (Homo sapiens) (UniProt P10275)
# Sequence (P10275 whole entry, looked up): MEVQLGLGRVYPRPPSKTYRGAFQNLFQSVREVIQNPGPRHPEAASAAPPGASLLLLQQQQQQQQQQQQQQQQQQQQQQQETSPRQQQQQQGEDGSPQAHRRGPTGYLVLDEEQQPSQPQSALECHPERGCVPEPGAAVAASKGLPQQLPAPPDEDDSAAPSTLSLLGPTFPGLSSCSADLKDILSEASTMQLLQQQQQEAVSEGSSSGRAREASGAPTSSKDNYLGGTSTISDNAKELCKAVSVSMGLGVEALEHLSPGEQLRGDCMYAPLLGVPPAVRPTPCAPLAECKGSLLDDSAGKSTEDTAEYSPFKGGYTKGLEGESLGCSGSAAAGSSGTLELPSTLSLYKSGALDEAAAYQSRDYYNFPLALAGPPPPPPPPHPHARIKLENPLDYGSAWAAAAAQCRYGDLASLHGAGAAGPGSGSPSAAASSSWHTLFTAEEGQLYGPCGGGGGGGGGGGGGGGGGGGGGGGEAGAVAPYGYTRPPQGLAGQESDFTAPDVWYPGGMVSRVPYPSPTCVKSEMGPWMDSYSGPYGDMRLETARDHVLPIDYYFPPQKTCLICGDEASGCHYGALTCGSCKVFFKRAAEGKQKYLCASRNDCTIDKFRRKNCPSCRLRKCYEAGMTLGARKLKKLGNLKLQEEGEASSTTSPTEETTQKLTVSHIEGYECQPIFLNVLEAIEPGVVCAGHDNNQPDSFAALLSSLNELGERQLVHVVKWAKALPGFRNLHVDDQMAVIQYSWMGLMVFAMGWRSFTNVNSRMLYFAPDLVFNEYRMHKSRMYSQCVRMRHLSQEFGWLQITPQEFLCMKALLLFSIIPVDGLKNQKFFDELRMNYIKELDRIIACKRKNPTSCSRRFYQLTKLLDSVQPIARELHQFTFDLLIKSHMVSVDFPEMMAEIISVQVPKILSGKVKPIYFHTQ
# testMethodNotes: qHTS assay to identify small molecule antagonists of the androgen receptor (AR) signaling pathway (AID 743035)
# cond: HEK293 AR-UAS-bla, R1881-stimulated, beta-lactamase FRET, 16 h; series mostly up to 58.5 µM
Inconclusive results are not listed. Calls of active or inactive are those of the source. The call rests on the fitted dose curve; in most records, active means well fitted inhibition curve with a large enough effect in the signal ratio in the repeat runs (not every such curve was filed as active); inconclusive means weak or mixed curves, or effect the other way; inactive means no such curve, though single readings can be large or run the other way; the % refers to the signal ratio.
Permitted responses: y (active), n (inactive)

Query string: Recorded test call requested for NC(=O)CN1CC(O)CC1=O (stereo unspecified)
Result string: n

Query string: Which result was noted for this compound in the test: CC(C)CCC(=O)O[C@H]1CC[C@H]2[C@@H]3CCC4=CC(=O)CC[C@]4(C)[C@H]3CC[C@]12C
Result string: n

Query string: Which outcome did this test record for the compound CCCC(=O)OC(C(Cl)(Cl)Cl)P(=O)(OC)OC (stereo unspecified) ?
Result string: n

Query string: Short answer needed: outcome of this test for C[N+]1(C)CCCCC1COC(=O)C(O)(c1ccccc1)c1ccccc1 (stereo unspecified) ?
Result string: n

Query string: So what was the verdict on CN1CCCC(=C(c2cccs2)c2cccs2)C1 in this test?
Result string: n

Query string: What was the test verdict on Oc1cc[c]([Hg][Cl])cc1 ?
Result string: y

Query string: Short answer needed: outcome of this test for C[C@@H](N)C(=O)c1ccccc1 ?
Result string: n

Query string: Given C[N+]1(C)[C@@H]2CC[C@H]1CC(OC(=O)c1c[nH]c3ccccc13)C2 (stereo partly specified) , state the outcome it received in this test.
Result string: n

Query string: GET /call?item= C[C@]12CC[C@H](O)C[C@H]1CC[C@@H]1[C@@H]2CC[C@]2(C)[C@@H](c3ccc(=O)oc3)C[C@H]3O[C@]132 returns the recorded outcome of this test.
Result string: y

Query string: How did this test come out for CCC(=O)O[C@]1(c2ccccc2)CCN(C)C[C@H]1C ?
Result string: n

Query string: Please indicate how the test categorized CO[C@H]1[C@@H](O)C[C@H](O[C@H]2[C@@H](O)C[C@H](O[C@H]3[C@@H](O)C[C@H](O[C@H]4CC[C@@]5(C)[C@H](CC[C@@H]6[C@@H]5C[C@@H](O)[C@]5(C)[C@@H](C7=CC(=O)OC7)CC[C@]65O)C4)O[C@@H]3C)O[C@@H]2C)O[C@@H]1C .
Result string: y

Query string: Recorded test call requested for C[C@]12CC[C@H]3[C@@H](CCC4=C(Cl)C(=O)CC[C@@]43C)[C@@H]1CC[C@@H]2O
Result string: n

Query string: # lookup: test call for [2H]C([2H])([2H])[C@H](N)Cc1ccccc1
Result string: n

Query string: In this assay, the call recorded for NCC(O)c1cccc(O)c1 (stereo unspecified) was what?
Result string: n

Query string: Per the records of this test, what outcome belongs to C[C@]12CC[C@H](OS(=O)(=O)O)CC1=CC[C@@H]1[C@@H]2CC[C@]2(C)C(=O)CC[C@@H]12 ?
Result string: n

Query string: Dear all, I need the recorded test outcome for O=C1CN(O)C(c2ccccc2)=c2cc(Cl)ccc2=N1 , thank you.
Result string: n

Query string: Identify the outcome logged in this assay for the compound shown: C[C@@H]1[C@@H]2Cc3ccc(O)cc3[C@@]1(C)CCN2CC1CC1
Result string: n

Query string: Recorded test outcome, item Oc1cccc[c]1[Hg][Cl]
Result string: y

Query string: Outcome logged for O=C1CCO1 in this assay:
Result string: n

Query string: What classification did CN[C@@H]1C[C@@H](c2ccc(Cl)c(Cl)c2)c2ccccc21 end up with in this test?
Result string: n

Query string: Please share the test call associated with COC(=O)[C@@H]1[C@H]2CC[C@@H](C[C@H]1OC(=O)c1ccccc1)N2C .
Result string: n
